tested on: HeLa (human cervix adenocarcinoma); test: Cell death by PI staining and flow cytometry (FACS), HeLa; format: cell-based; details: HeLa cells, 6 h incubation, serum-free medium, PI staining and FACS; read-out: IC50, peptide concentration required for half-maximal cell death activity
measured-property: IC50 (nM)
Write the value in nM as a bare number.

Kindly note the recorded IC50 for 19-FTKGYGFGL-26- RQIKIWFQNRRMKWKK [D-Δ(1-18)N-Ter-Antp] , which is 2000
